experiment: Viability qHTS for spleen associated tyrosine kinase inhibitor (SYKi) drug resistant MV4-11 cells (AID 1963824); settings: SYKi-resistant MV4-11 viability, CellTiter-Glo, 72 h; series mostly up to 45 µM; further: nearly all actives have a fitted effect of over 35% in size
Inconclusive results are not listed. Active and inactive are the calls of the source. The call rests on the fitted dose curve; in most records, active means well fitted cell-killing curve with a large enough effect; inconclusive means small, poorly fitted or top-dose-only effect, or effect the other way; inactive means no such curve, though single readings can be large or run the other way.
// one of active, inactive, no free text

Recorded test call requested for CN1CCOC(c2ccccc2)c2ccccc2C1 (stereo unspecified)
inactive

Recorded test call requested for C/C=C(/C(=C/C)c1ccc(O)cc1)c1ccc(O)cc1
active

---

experiment: Viability qHTS for spleen associated tyrosine kinase inhibitor (SYKi) naive MV4-11 cells (AID 1963823); conditions: MV4-11 AML viability, CellTiter-Glo luminescence, 72 h; series mostly up to 45 µM; further: nearly all actives have a fitted effect of over 40% in size
Inconclusive results are not listed. Active and inactive are the calls of the source. Calls come from the whole dose curve; as a rule, active = well fitted cell-killing curve with a large enough effect; inconclusive = small, poorly fitted or top-dose-only effect, or effect the other way; inactive = no such curve, though single readings can be large or run the other way.
// one of 1 (yes) for active, 0 (no) for inactive, no free text

Worked set:
{"Compound": "O=C(Oc1ccccc1)c1ccccc1O", "Classification": "0 (no)"}
{"Compound": "C[C@@H]1CC[C@]2(C(=O)O)CC[C@]3(C)C(=CCC4[C@@]5(C)C[C@@H](O)[C@@H](O)C(C)(C)C5CC[C@]43C)C2[C@]1(C)O (some centres undefined)", "Classification": "0 (no)"}
{"Compound": "C[N+](C)(C)CCOC(N)=O", "Classification": "0 (no)"}
{"Compound": "C[C@@H]1C(=O)O[C@H](C)[C@H]1C[C@@H](O)[C@](C)(O)[C@H]1CC[C@@]2(O)C3=CC(=O)[C@@H]4C[C@@H](O)[C@@H](O)C[C@]4(C)C3CC[C@]12C (some centres undefined)", "Classification": "0 (no)"}

Recorded test call requested for CN(C)CC[C@H](CSc1ccccc1)Nc1ccc(S(=O)(=O)NC(=O)c2ccc(N3CCN(Cc4ccccc4-c4ccc(Cl)cc4)CC3)cc2)cc1[N+](=O)[O-]
1 (yes)

Recorded test call requested for C=C[C@@]12COC(=O)C(=C)[C@@H]1[C@@H](O)[C@H](C(=C)C(=O)OC)[C@@H](O)C2
0 (no)

---

experiment: Cellular viability qHTS for adrenocortical cancer (ACC) cell line NCI-H295R (AID 1963990); settings: CellTiter-Glo ATP luminescence, 48 h; series mostly up to 46.1 µM; further: nearly all actives have a fitted effect of over 60% in size
Inconclusive results are not listed. Active and inactive are the calls of the source. Calls come from the whole dose curve; as a rule, active = well fitted cell-killing curve with a large enough effect; inconclusive = small, poorly fitted or top-dose-only effect; inactive = flat fitted curve, though single readings scatter.
// one of active, inactive, no free text

{"Molecule": "CN1C(=O)c2ccccc2C1=O", "Classification": "inactive"}
{"Molecule": "COc1cc2c3c(n(CCCNCCO)c(=O)c2cc1OC)-c1cc2c(cc1C3=O)OCO2", "Classification": "active"}
{"Molecule": "CC(C)(C)C(=O)OCOC(=O)[C@@H]1N2C(=O)[C@@H](NC(=O)[C@H](N)c3ccccc3)[C@H]2SC1(C)C", "Classification": "inactive"}
{"Molecule": "Cc1cc(CN2CCN(c3c(Br)cnc4nc(-c5ccc(N6CCN(C)CC6)cc5)[nH]c34)CC2)no1", "Classification": "active"}
{"Molecule": "Cc1cnc(Nc2ccc(F)cc2Cl)nc1-c1c[nH]c(C(=O)N[C@H](CO)c2cccc(Cl)c2)c1", "Classification": "active"}

Recorded test call requested for Cc1cc(C(C#N)c2ccc(Cl)cc2)c(Cl)cc1NC(=O)c1cc(I)cc(I)c1O (stereo not given)
active

Recorded test call requested for COc1cc(C)[nH]c(=O)c1CN1CCc2c(Cl)cc([C@H](OC)C3COC3)c(Cl)c2C1=O
inactive

Recorded test call requested for CC(C)Cn1cnc2c(N)nc3ccccc3c21
inactive

Recorded test call requested for Cn1cc(-c2cc(Oc3cc(F)c(NC(=O)C4(C(=O)Nc5ccccc5)CC4)cc3F)ccn2)cn1
active

Recorded test call requested for C=CCCCCCCCCC(=O)O
inactive

---

test: Viability qHTS for spleen associated tyrosine kinase inhibitor (SYKi) drug resistant MV4-11 cells (AID 1963824); settings: SYKi-resistant MV4-11 viability, CellTiter-Glo, 72 h; series mostly up to 45 µM; further: nearly all actives have a fitted effect of over 35% in size; further: potency means the concentration at half of the fitted maximal effect
Records with an inconclusive call do not appear. Calls of active or inactive are those of the source. The call rests on the fitted dose curve; in most records, active means well fitted cell-killing curve with a large enough effect; inconclusive means small, poorly fitted or top-dose-only effect, or effect the other way; inactive means no such curve, though single readings can be large or run the other way.
Assay readout: Potency

// known answers, use as guide
{"Compound": "C/C=C/C=C/C(=O)O[C@@H]1C=C2COC(=O)[C@]2(O)[C@@]2(C)CCCC(C)(C)[C@H]12", "Obs value": "16.1 µM (active)"}
{"Compound": "Cc1cc(O)cc2c1O[C@](C)(CCC[C@H](C)CCC[C@H](C)CCCC(C)C)CC2", "Obs value": "inactive"}
{"Compound": "CCN(CC)CCOC(=O)C1(C2CCCCC2)CCCCC1", "Obs value": "inactive"}
{"Compound": "CC(C(=O)O)c1ccc(C(=O)c2ccccc2)s1 (centres undefined)", "Obs value": "inactive"}
{"Compound": "CS(=O)(=O)Nc1cc2occ(NC=O)c(=O)c2cc1Oc1ccccc1", "Obs value": "inactive"}
{"Compound": "C=C1CCC2C(OC(=O)C2(O)COC(C)=O)C2C(=C)C(O)CC12 (centres undefined)", "Obs value": "inactive"}
{"Compound": "Cc1ccc(-c2ncc(Cl)cc2-c2ccc(S(C)(=O)=O)cc2)cn1", "Obs value": "inactive"}
{"Compound": "Cc1ccc(-c2ccc3c(ccc4sc5c(c43)NC[C@@H](C)NC5=O)n2)cn1", "Obs value": "2.91 µM (active)"}

Which measured Potency value corresponds to CC1CC[C@]2(C(=O)O)CC[C@]3(C(=O)O)C(=CCC4[C@@]5(C)CC[C@H](OC6OC(C)C(O)C(OC7OC(CO)C(O)C(O)C7O)C6O)C(C)(C)C5CC[C@]43C)C2C1C (some centres undefined) ?
inactive

Which measured Potency value corresponds to COC(=O)[C@@H](N)Cc1ccc(O)c(O)c1 ?
inactive

Which measured Potency value corresponds to COc1cc(C(=O)OC[C@H]2O[C@@H](OC(C)(C)C(=O)O)[C@H](O)[C@@H](O)[C@@H]2O)cc(OC)c1O ?
inactive

Which measured Potency value corresponds to CN(CC(=O)N(Cc1ccc(C2CCCCC2)cc1)c1ccc(C(=O)O)cc1)S(=O)(=O)c1c(F)c(F)c(F)c(F)c1F ?
1.03 µM (active)

Which measured Potency value corresponds to COC1OC(=O)C2=C1C1(C)CCCC(C)(C)C1CC2O (centres undefined) ?
inactive

Which measured Potency value corresponds to COc1cc(CO)ccc1O[C@@H]1O[C@H](CO)[C@@H](O)[C@H](O)[C@H]1O ?
inactive

Which measured Potency value corresponds to CC1(C)S[C@@H]2[C@H](NC(=O)Cc3ccccc3)C(=O)N2[C@H]1C(=O)O (tested in a mixture with another compound) ?
inactive

Which measured Potency value corresponds to O=C(O)CC1CCC(c2ccc(-c3ccc4nc(C(=O)NCc5ccc(OC(F)(F)F)cc5)cn4c3)cc2)CC1 (centres undefined) ?
inactive

Which measured Potency value corresponds to CC(c1cc2ccccc2s1)N(O)C(N)=O (centres undefined) ?
inactive

Which measured Potency value corresponds to CC(C)C(=O)OCc1cccc(OC(=O)[C@@H]2N3C(=O)[C@@H](NC(=O)Cc4ccccc4)[C@H]3SC2(C)C)c1 ?
7.5 µM (active)

Which measured Potency value corresponds to COc1ccc2c(c1O)OC(C)(C)c1c-2ccc2c1C(=O)N(c1ccc(C(=O)c3ccccc3)cc1)C2=O ?
inactive

---

assay: Quantitative highthroughput screen to assess conditional lethalithy of SEM cells grown in RPMI1640 with unreated serum (RPMI+s) (AID 1963883); settings: SEM B-ALL cells, CellTiter-Glo viability, 48 h; series mostly up to 45.8 µM; further: nearly all actives have a fitted effect of over 35% in size;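 on viability: 100% = DMSO wells and 0% = empty wells without cells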
Records with an inconclusive call do not appear. Calls of active or inactive are those of the source. Calls follow the shape of the dose curve; as a rule, active = well fitted cell-killing curve with a large enough effect; inconclusive = small, poorly fitted or top-dose-only effect, or effect the other way; inactive = no such curve, though single readings can be large or run the other way.
// one of yes = active, no = inactive, no free text

Worked set:
{"Compound": "CC[C@H](CC[C@@H](C)[C@H]1CC[C@H]2[C@@H]3CC=C4C[C@@H](O)CC[C@]4(C)[C@@H]3CC[C@]12C)C(C)C", "Classification": "no"}
{"Compound": "CCOC(=O)c1ccc(C#Cc2ccc3c(c2)C(C)(C)CCS3)nc1", "Classification": "no"}
{"Compound": "CC[C@@H]1C=C(C)C[C@H](C)C[C@H](OC)[C@H]2O[C@@](O)(C(=O)C(=O)N3CCCC[C@@H]3C(=O)O[C@H](C(C)=C[C@@H]3CC[C@H](Cl)[C@H](OC)C3)[C@H](C)[C@@H](O)CC1=O)[C@H](C)C[C@H]2OC", "Classification": "no"}
{"Compound": "N#CC(=C1Nc2ccccc2S1)c1ccnc(OCc2ccc(CN3CCOCC3)cc2)n1", "Classification": "no"}
{"Compound": "C[C@@H]1O[C@@H](O[C@H]2CC[C@@]3(C)[C@H](CC[C@@H]4[C@H]3C[C@@H](O)[C@]3(C)[C@@H](C5=CC(=O)OC5)CC[C@]43O)C2)C[C@H](O)[C@@H]1O[C@H]1C[C@H](O)[C@H](O[C@H]2C[C@H](O)[C@@H](O)[C@@H](C)O2)[C@H](C)O1 (stereo in doubt)", "Classification": "yes"}
{"Compound": "O=C(O)C1CCCN(CCC=C(c2ccccc2)c2ccccc2)C1 (stereo not given)", "Classification": "no"}
{"Compound": "N#CCNC(=O)c1ccc(-c2ccnc(Nc3ccc(N4CCOCC4)cc3)n2)cc1", "Classification": "yes"}
{"Compound": "Cc1[nH]c(=O)c(C#N)cc1-c1ccc2nccn2c1", "Classification": "no"}

Recorded test call requested for CC(C)C[C@H](NC(=O)CNC(=O)c1cc(Cl)ccc1Cl)B1OC(=O)CC(CC(=O)O)(C(=O)O)O1 (stereo not given in full)
yes

Recorded test call requested for Nc1ncn([C@H]2C[C@H](O)[C@@H](CO)O2)c(=O)n1
yes

Recorded test call requested for CS[C@H]1SC[C@@H]2C(=O)N(C)[C@H](C(C)C)C(=O)OC[C@H](NC(=O)c3cnc4ccccc4n3)C(=O)N[C@H](C)C(=O)N(C)[C@@H]1C(=O)N(C)[C@H](C(C)C)C(=O)OC[C@H](NC(=O)c1cnc3ccccc3n1)C(=O)N[C@H](C)C(=O)N2C
yes

Recorded test call requested for O=c1ncn2nc(Sc3ccc(F)cc3F)ccc2c1-c1c(Cl)cccc1Cl
yes
